# Measurement target: EGFR L858R/T790M/C797S (Homo sapiens, UniProt P00533, C797S/L858R/T790M)
# Sequence (P00533 25-1210 T790M/C797S/L858R): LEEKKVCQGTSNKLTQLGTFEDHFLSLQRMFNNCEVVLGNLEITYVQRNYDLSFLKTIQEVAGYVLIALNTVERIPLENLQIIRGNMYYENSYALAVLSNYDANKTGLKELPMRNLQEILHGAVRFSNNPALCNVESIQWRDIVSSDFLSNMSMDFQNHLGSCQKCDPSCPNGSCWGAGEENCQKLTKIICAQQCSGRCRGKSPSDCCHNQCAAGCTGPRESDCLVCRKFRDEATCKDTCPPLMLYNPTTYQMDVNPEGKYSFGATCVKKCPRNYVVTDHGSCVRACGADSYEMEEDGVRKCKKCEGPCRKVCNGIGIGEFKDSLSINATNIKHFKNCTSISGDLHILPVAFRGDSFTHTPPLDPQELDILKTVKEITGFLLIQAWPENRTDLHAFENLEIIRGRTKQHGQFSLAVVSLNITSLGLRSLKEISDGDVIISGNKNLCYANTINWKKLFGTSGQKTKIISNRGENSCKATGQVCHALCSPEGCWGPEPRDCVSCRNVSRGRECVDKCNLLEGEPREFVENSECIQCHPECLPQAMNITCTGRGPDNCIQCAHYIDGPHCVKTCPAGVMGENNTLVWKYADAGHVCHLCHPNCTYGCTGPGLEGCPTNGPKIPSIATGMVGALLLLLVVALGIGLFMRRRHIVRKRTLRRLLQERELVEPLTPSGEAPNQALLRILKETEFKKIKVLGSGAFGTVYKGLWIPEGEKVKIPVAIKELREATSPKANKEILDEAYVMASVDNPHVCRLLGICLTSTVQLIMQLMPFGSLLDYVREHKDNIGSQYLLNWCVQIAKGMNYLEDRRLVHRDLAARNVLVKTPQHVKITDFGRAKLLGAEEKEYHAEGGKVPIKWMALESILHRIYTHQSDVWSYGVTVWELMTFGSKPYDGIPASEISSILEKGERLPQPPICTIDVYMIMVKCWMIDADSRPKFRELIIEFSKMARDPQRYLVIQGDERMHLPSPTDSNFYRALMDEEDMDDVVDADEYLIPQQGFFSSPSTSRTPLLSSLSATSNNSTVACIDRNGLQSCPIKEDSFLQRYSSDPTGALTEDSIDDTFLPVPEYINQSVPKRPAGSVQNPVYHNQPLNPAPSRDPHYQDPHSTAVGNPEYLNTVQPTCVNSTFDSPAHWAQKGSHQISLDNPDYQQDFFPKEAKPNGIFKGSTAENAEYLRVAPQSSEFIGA
# Assay: Biochemical EGFR kinase assay (Lance Ultra TR-FRET), triple mutant L858R/T790M/C797S
# Experimental setup: Km ATP; read-out: IC50 L858R/T790M/C797S (nM) Km ATP
Measured attribute: IC50 (nM)

Below, 6 compounds whose answers are already recorded.
{"columns": ["Input smiles", "Unit text", "IC50"],
 "data": [
  ["CN1CCN(c2ccc(-c3cnc(Nc4ccnc(-c5cnn(S(=O)(=O)C6CC6)c5)n4)cc3N[C@H]3CC[C@@](C)(O)CC3)nn2)CC1", "nM", 0.1],
  ["COc1c(F)ccnc1-c1cnc(Nc2ccnc(-c3cnn(S(=O)(=O)C4CC4)c3)n2)cc1N[C@H]1CC[C@@](C)(O)CC1", "nM", 2.6],
  ["C[C@]1(O)CC[C@@H](Nc2cc(Nc3ccnc(-c4cnn(S(=O)(=O)C5CC5)c4)n3)ncc2-c2cnc(N3CCC(F)(F)CC3)cn2)CC1", "nM", 6.6],
  ["O=S(=O)(C1CC1)n1cc(-c2nccc(Nc3cc(N[C@H]4CC[C@@H](F)CC4)c(-c4ccc(CN5CCOCC5)cn4)cn3)n2)cn1", "nM", 1.2],
  ["CN(C)CCOc1cnc(-c2cnc(Nc3ccnc(-c4cnn(S(=O)(=O)C5CC5)c4)n3)cc2N[C@H]2CC[C@@H](CO)CC2)cn1", "nM", 0.04],
  ["O=S(=O)(C1CC1)n1cc(-c2nccc(Nc3cc(N[C@H]4CC[C@@H](CO)CC4)c(-c4cc(CN5CCC(F)(F)CC5)ccn4)cn3)n2)cn1", "nM", 2.3]
]}

(a) CN(C)C[C@H]1CC[C@@H](Nc2cc(Nc3ccnc(-c4cnn(S(=O)(=O)C5CC5)c4)n3)ncc2-c2ccc(N3CCC(F)(F)CC3)nn2)CC1
(b) Cc1ccc(-c2cnc(Nc3ccnc(-c4cnn(S(=O)(=O)C5CC5)c4)n3)cc2N[C@H]2CC[C@@](C)(O)CC2)nn1
IN: Higher IC50 between a and b ? Respond with the label that goes with your answer.
OUT: a
(a: 0.2 nM, b: 0.1 nM)

(a) O=S(=O)(C1CC1)n1cc(-c2nccc(Nc3cc(N[C@H]4CC[C@H](CCO)CC4)c(-c4ccc(C(F)F)cn4)cn3)n2)cn1
(b) O=S(=O)(C1CC1)n1cc(-c2nccc(Nc3cc(N[C@H]4CC[C@@H](CO)CC4)c(-c4cc(N5CCC(F)(F)CC5)ccn4)cn3)n2)cn1
(c) CN(C)C[C@H]1CC[C@@H](Nc2cc(Nc3ccnc(-c4cnn(S(=O)(=O)C5CC5)c4)n3)ncc2-c2cc(C(F)F)ccn2)CC1
(d) C[C@]1(O)CC[C@@H](Nc2cc(Nc3ccnc(-c4cnn(S(=O)(=O)C5CC5)c4)n3)ncc2-c2ccc(C#N)cn2)CC1
IN: Ascending by IC50, please. Returns: the labels listed in the requested order.
OUT: d, c, a, b
